From: PubChem BioAssay AID328

Test system: BDF1 mice, P388 leukemia ip, median survival T/C
Assay: NCI In Vivo Anticancer Drug Screen. Data for tumor model P388 Leukemia (intraperitoneal) in B6D2F1 (BDF1) mice
Settings: endpoint: median survival time; dose: 100.0 mg/kg/injection; schedule: Q04DX003 (ip); vehicle: other
Procedure: The antitumor activity of compounds was measured in mice bearing transplantable tumors. Survival or tumor size were measured and the results are expressed as the measurement made in the treated group (T) divided by the measurement made in the vehicle treated control group (C). The tumor model used in this assay is P388 Leukemia (intraperitoneal) in B6D2F1 (BDF1) mice
Toxic doses and inconclusive results are not listed. How the source made its calls: active means survival T/C of 150% or more; inactive means T/C below 125% in these data.
Hello, when you answer, please use one of the following outcomes: active, inactive

INPUT: Look up the recorded call for "CCCCN(C)/N=N/c1[nH]ncc1C(=O)OCC" in this test.
OUTPUT: inactive

INPUT: Hi, do you know how "CCCCCCCCCC(=O)CCCCCCC" came out in this test?
OUTPUT: inactive

INPUT: Would you mind telling me which call this test gave CC(=O)C(c1ccccc1)[N+](C)(C)C (stereo unspecified) ?
OUTPUT: inactive

INPUT: Dear colleague, could you share the recorded outcome for "C[C@@H]1C[C@@H]([C@H](O)CC2CC(=O)NC(=O)C2)C(=O)[C@@H](C)C1" when you have a moment?
OUTPUT: active

INPUT: For "CCOC(=O)C(C(C)=O)C(=O)OCC" , what call appears in the results of this test?
OUTPUT: inactive

INPUT: Each compound tested received a call. Report the one for "CC(=O)c1cccc(OCc2ccccc2)c1" .
OUTPUT: inactive

###

tested on: BDF1 mice, P388 leukemia ip, median survival T/C; experiment: NCI In Vivo Anticancer Drug Screen. Data for tumor model P388 Leukemia (intraperitoneal) in B6D2F1 (BDF1) mice; conditions: endpoint: median survival time; dose: 6.25 mg/kg/injection; schedule: Q01DX009 (ip); vehicle: water; higher = longer survival
Inconclusive results and toxic doses are left out.
So I've got a bunch of compounds here, and I need their T/C values.

INPUT: Determine its reported T/C: "CC(=O)Oc1cc(-c2ccccc2)c(OC(C)=O)cc1-c1ccccc1"
OUTPUT: 109 % of control

INPUT: Provide one value: measured T/C of "Cc1cc(C)[s+]s1"
OUTPUT: 91 % of control

INPUT: Input "CCN(CC)Cc1c(C)[nH]c2c(OC)cccc2c1=O" , output reported T/C.
OUTPUT: 97 % of control

INPUT: Tell us which T/C value is on record for "NC(N)=Nc1ccc(C(=O)Oc2ccc([N+](=O)[O-])cc2CN2CCCCC2)cc1"
OUTPUT: 104 % of control

INPUT: Tell me its T/C given "CC(=O)n1ncc2ccc([N+](=O)[O-])cc21" as the entry.
OUTPUT: 103 % of control

INPUT: Return value of T/C for input CC(C)=CCC(OC(=O)C=C(C)C)C1=CC(=O)c2c(O)ccc(O)c2C1=O (stereo unspecified) , no commentary.
OUTPUT: 113 % of control

###

system: BDF1 mice, P388 leukemia ip, median survival T/C; experiment: NCI In Vivo Anticancer Drug Screen. Data for tumor model P388 Leukemia (intraperitoneal) in B6D2F1 (BDF1) mice; settings: endpoint: median survival time; dose: 100.0 mg/kg/injection; schedule: Q04DX003 (ip); vehicle: saline with Tween-80; higher = longer survival
Toxic doses and inconclusive results are not listed.
MEASURED ENDPOINT: T/C

INPUT: Read off the recorded T/C for "CC(=O)CC(Cl)(C(F)(F)F)C(F)(F)F"
OUTPUT: 100 % of control

INPUT: For the compound "S=C(N/N=C/c1ccc(-c2ccccc2)cc1)Nc1ccccc1" , report T/C.
OUTPUT: 91 % of control

INPUT: # return recorded T/C for entry "COc1cc(/C=C(/C)[N+](=O)[O-])cc(Br)c1OC"
OUTPUT: 117 % of control

INPUT: Using the record for N#CC1C=Cc2ccccc2N1C(=O)Oc1ccccc1 (centres undefined) , state its measured T/C.
OUTPUT: 95 % of control

INPUT: Note T/C for the compound shown: "Cc1c(C#N)c2n(c1C)CCCC(=O)N2"
OUTPUT: 91 % of control

INPUT: Let me know recorded T/C for O=C1N=C2C=CC=CN2C(=O)C1Cc1ccccc1 (centres undefined) , thanks.
OUTPUT: 96 % of control

INPUT: Could you please provide reported T/C for "CCCNC(=O)Nc1cccc(C(F)(F)F)c1" ? Thanks!
OUTPUT: 104 % of control

INPUT: State its T/C for this compound: O=S(=O)(Nc1ccccc1)c1ccc(C2CC3(Cl)C(Cl)=C(Cl)C2(Cl)C3(Cl)Cl)cc1 (centres undefined)
OUTPUT: 91 % of control

INPUT: Hello, please tell me recorded T/C for this one: "NNC(=O)c1ccc(Cl)c(Cl)c1"
OUTPUT: 107 % of control

INPUT: Supply T/C value. Item: "Cc1ccc(CCCCCCCCCCCC(=O)O)cc1"
OUTPUT: 95 % of control

INPUT: Quick one: give measured T/C for "Nc1nc(=O)[nH]c(N)c1N=O"
OUTPUT: 100 % of control

INPUT: Fill in reported T/C for this entry: "CC(=O)N(C(C)=O)c1ccc(N=Nc2ccccc2C)cc1C"
OUTPUT: 95 % of control

INPUT: Answer with the recorded T/C of "OC(CBr)(c1ccccc1)c1ccccc1" only.
OUTPUT: 99 % of control

INPUT: Tell me its T/C given "COc1cc[n+]([O-])cc1/C=C/c1c[n+]([O-])ccc1OC" as the entry.
OUTPUT: 103 % of control

###

system: BDF1 mice, P388 leukemia ip, median survival T/C; assay: NCI In Vivo Anticancer Drug Screen. Data for tumor model P388 Leukemia (intraperitoneal) in B6D2F1 (BDF1) mice; conditions: endpoint: median survival time; dose: 75.0 mg/kg/injection; schedule: Q04DX003 (ip); vehicle: saline
Inconclusive results and toxic doses are left out. Rule for the calls: active = survival T/C of 150% or more; inactive = T/C below 125% in these data.
Use one of these outcomes when replying: active, inactive

INPUT: Dear colleague, could you share the recorded outcome for Nc1ccn(C2OC(COP(=O)(O)O)C(O)C2O)c(=O)n1 (centres undefined) when you have a moment?
OUTPUT: active

INPUT: Lab log entry: "CCCCn1cnc2c(SC)ncnc21" — outcome as called in the assay?
OUTPUT: inactive

INPUT: Hello, I am checking results. What call was entered for "O=S1(=O)C=C(c2ccccc2)C(c2ccccc2)=C1" ?
OUTPUT: inactive

INPUT: // return assay outcome for "NOCc1csc(N)n1"
OUTPUT: inactive

###

system: BDF1 mice, P388 leukemia ip, median survival T/C; test: NCI In Vivo Anticancer Drug Screen. Data for tumor model P388 Leukemia (intraperitoneal) in B6D2F1 (BDF1) mice; settings: endpoint: median survival time; dose: 100.0 mg/kg/injection; schedule: Q04DX003 (ip); vehicle: saline; higher = longer survival
Toxic doses and inconclusive results are not listed.
Provide the reported T/C of each item.

INPUT: Indicate the recorded T/C value for this compound: Cc1cccc(CSc2nc(N)nc3ncn(C4CC(O)C(CO)O4)c23)n1 (centres undefined)
OUTPUT: 100 % of control

INPUT: Respond only with T/C recorded for "O"
OUTPUT: 105 % of control

INPUT: Supply recorded T/C for "COc1cccc(/C=C/[N+](=O)[O-])c1OC" here.
OUTPUT: 98 % of control

INPUT: Identify T/C associated with the compound CC(N)C(=O)NCC(=O)NCC(=O)O (centres undefined)
OUTPUT: 104 % of control

INPUT: Return T/C for the following compound: CC(=O)OC1CCC2(C)CCCC(O)C2(O)C1 (centres undefined)
OUTPUT: 110 % of control

INPUT: Identify T/C associated with the compound CC1=NC(C(=O)O)C(=O)O1 (centres undefined)
OUTPUT: 95 % of control

INPUT: Give the value of T/C reported for the following: "CCOC(=O)c1nc(NC)sc1N"
OUTPUT: 105 % of control

INPUT: Entry "O=C(O)c1c(I)c(I)c(I)c(I)c1C(=O)c1ccccc1" needs its T/C filled in; supply it.
OUTPUT: 118 % of control

INPUT: Fill in T/C for record "COc1cc(/C=N/NC(=O)C[n+]2ccccc2)cc(OC)c1"
OUTPUT: 86 % of control

###

system: BDF1 mice, P388 leukemia ip, median survival T/C; experiment: NCI In Vivo Anticancer Drug Screen. Data for tumor model P388 Leukemia (intraperitoneal) in B6D2F1 (BDF1) mice; settings: endpoint: median survival time; dose: 400.0 mg/kg/injection; schedule: Q01DX009 (ip); vehicle: Klucel (hydroxypropylcellulose) (HPC)
Toxic doses and inconclusive results are not listed. How the source made its calls: active means survival T/C of 150% or more; inactive means T/C below 125% in these data.
Your answer must be one of the following: active, inactive

INPUT: Returns: the outcome recorded for COC(=O)C1OC1c1ccccc1 (stereo not given) in this assay.
OUTPUT: inactive

INPUT: // outcome(item) with item = "C=CCN(CC=C)c1ccccc1"
OUTPUT: inactive

INPUT: Short answer needed: outcome of this test for "Nc1ccccc1C(=O)OCCc1ccccc1" ?
OUTPUT: inactive

INPUT: Lab log entry: "O=NN(CCBr)C(=O)NCCBr" — outcome as called in the assay?
OUTPUT: active

INPUT: // return assay outcome for "CC1=NN(c2ccccc2)C(=O)/C1=C\c1ccc(N(CCC#N)CCC#N)cc1"
OUTPUT: inactive

INPUT: Call for entry "CCN/C(C)=C\C(=O)OCC" :
OUTPUT: inactive

INPUT: Per the assay record, what outcome was assigned to CCOC(=O)C(C(=O)OCC)C1C=CCC1 (stereo not given) ?
OUTPUT: inactive

INPUT: What classification did "O=C(/C=C\c1ccc(O)cc1)c1ccccc1" end up with in this test?
OUTPUT: inactive

INPUT: # lookup: test call for Cc1ccc(S(=O)(=O)N2CC3CC2CN3Cc2ccccc2)cc1 (stereo not given)
OUTPUT: inactive

INPUT: Could you kindly confirm the outcome this assay logged for "COc1ccc(/C=C(C(=O)O)/C(=C/c2ccc(OC)c(OC)c2)C(=O)O)cc1OC" ?
OUTPUT: inactive

INPUT: Dear all, I need the recorded test outcome for "COC(=O)/C=C/c1ccc(Cl)cc1" , thank you.
OUTPUT: inactive

INPUT: How did this test come out for "C#CCCOC(=O)Nc1ccccc1" ?
OUTPUT: inactive

INPUT: Field: outcome | Entry: "O=C(O)CCC(=O)Nc1cccc(Oc2ccc([N+](=O)[O-])cc2[N+](=O)[O-])c1"
OUTPUT: inactive

INPUT: What classification did "COc1ccc(/C(C#N)=C2C=C(Cl)/C(=N/O)C=C/2Cl)cc1" end up with in this test?
OUTPUT: inactive

INPUT: Outcome? "CNC(=O)C(C)(C)c1ccccc1"
OUTPUT: inactive
